Origin of values: ChEMBL document CHEMBL3792366

test_description: Spermicidal activity in human sperms assessed as motility measured within 30 secs by phase contrast microscopy
Assay type: functional, Sperm
recorded_metric: MEC (%)
One number for each entry, in %.

Answered examples (5):
INSERT INTO measurements (smiles_data, units_symbol, measured_result) VALUES
  ('S=C(SSC(=S)N1CCN(c2ncccn2)CC1)N1CCN(c2ncccn2)CC1', '%', 1),
  ('C=CCN1CCN(C(=S)SSC(=S)N2CCN(CC=C)CC2)CC1', '%', 0.001),
  ('S=C(SSC(=S)N1CCN(c2ccccn2)CC1)N1CCN(c2ccccn2)CC1', '%', 1),
  ('S=C(SCCN1CCOCC1)N1CCN(C(=S)SSC(=S)N2CCN(C(=S)SCCN3CCOCC3)CC2)CC1', '%', 0.5),
  ('CCCCCCCCCCCCCCCCN1CCN(C(=S)SSC(=S)N2CCN(CCCCCCCCCCCCCCCC)CC2)CC1', '%', 1);

Please give MEC for each item listed below.
1. CCCCCCCCSC(=S)N1CCN(C(=S)SSC(=S)N2CCN(C(=S)SCCCCCCCC)CC2)CC1
2. CCCCN1CCN(C(=S)SCCCSC(=S)N2CCN(CCCC)CC2)CC1

1: 1; 2: 0.5

Please give MEC for each item listed below.
1. CCCCCCSC(=S)N1CCN(C(=S)SSC(=S)N2CCN(C(=S)SCCCCCC)CC2)CC1
2. CS(=O)(=O)N1CCN(C(=S)SSC(=S)N2CCN(S(C)(=O)=O)CC2)CC1
3. C=CCN1CCN(C(=S)SCCSC(=S)N2CCN(CC=C)CC2)CC1
4. N#CCCCN1CCN(C(=S)SCCCSC(=S)N2CCN(CCCC#N)CC2)CC1
5. N#CCCCN1CCN(C(=S)SSC(=S)N2CCN(CCCC#N)CC2)CC1
6. S=C(SCCN1CCCCC1)N1CCN(C(=S)SSC(=S)N2CCN(C(=S)SCCN3CCCCC3)CC2)CC1

1: 1; 2: 1; 3: 0.5; 4: 0.5; 5: 0.001; 6: 0.5
